Test system: DMS 114 small cell lung
assay name: NCI tumour cell line growth inhibition, 48 h
readout: TGI

Solved entries:
molecule	measured target	TGI
Cn1nc(-c2ccccc2)c2c(/C=C/c3ccccc3)onc2c1=O	DMS 114 small cell lung	> 100 µM
COc1cccc(-c2cc(=O)c3ccccc3[nH]2)c1	DMS 114 small cell lung	> 59.3 µM

Would you mind telling me what TGI value was observed for CC(=O)C1=C(O)C2C3c4c[nH]c5cccc(c45)CC3C(C)(C)N2C1=O (stereo not drawn) ?
> 100 µM

* * *

Tested on: HOP-62 NSCLC
assay name: NCI tumour cell line growth inhibition, 48 h
readout: TGI

Would you mind telling me what TGI value was observed for `O=c1cnn(CCOCP(=O)(O)O)c(=O)[nH]1` ?
> 100 µM

Would you mind telling me what TGI value was observed for `CN(CCCNC(=O)CCOCCOCCOCCNC(=O)Cc1ccc2ccc3cccc4ccc1c2c34)CCCNc1cc(-c2ccc3ccccc3c2)nc2ccccc12` ?
1.12 µM

Would you mind telling me what TGI value was observed for `CC(=O)NNc1nc(C)c(C(=O)NNC(=O)C(=O)Nc2ccc(Cl)cc2Cl)s1` ?
> 100 µM

Would you mind telling me what TGI value was observed for `COc1ccc2oc(=O)c(-c3csc(C)n3)cc2c1` ?
84 µM

Would you mind telling me what TGI value was observed for CC(=O)NC(CC(C)C)C(=O)NC(Cc1ccccc1)C(=S)N1CCCC1 (configuration not stated) ?
> 100 µM

Would you mind telling me what TGI value was observed for `CN1CSC(=S)N(Cc2ccccc2)C1` ?
> 100 µM

Would you mind telling me what TGI value was observed for `COc1nnc2ccc(N3CCC(c4ccc(OCCN5CCN(C)C(=O)[C@H]5C)cc4)CC3)nn12` ?
> 100 µM
